Reference source: ChEMBL document CHEMBL3885861

# Species on record: Rattus norvegicus
# Procedure Details: Open TG-GATES - Regimen: Daily Repeat
# Assay type: toxicity, organism-based, Sprague-Dawley
# Set-up: regimen Daily Repeat, gender Male, age 6 weeks
# Cond: in vivo, po, 100 mg/kg, […], tissue Plasma, route gavage, dose level Low, time 28 day
Recorded Endpoint: TG (mg/dL)
Output spec: scalar in mg/dL, unitless text.

Recorded result, CC(S)C(=O)NCC(=O)O (centres undefined) , TG: 136.4

Recorded result, CC(=O)[C@@]1(O)CC[C@H]2[C@@H]3C=C(Cl)C4=CC(=O)CC[C@]4(C)[C@H]3CC[C@@]21C , TG: 178

Recorded result, CCCCNC(=O)NS(=O)(=O)c1ccc(C)cc1 [TOLBUTAMIDE] , TG: 174.6

Recorded result, O=C(O)c1ccccc1Nc1ccccc1 , TG: 129.6

###

# Species: Rattus norvegicus
# Procedure Details: Open TG-GATES - Regimen: Single
# Assay type: toxicity, organism-based, Sprague-Dawley
# Parameters: regimen Single, gender Male, age 6 weeks
# Cond: in vivo, po, 0 mg/kg, 6 h, tissue Blood, route gavage, dose level Control
Field: MCV. Provide a value for each of the molecules that follow.
Output spec: scalar in fL, unitless text.

Recorded result, CN(CCOc1ccc(CC2SC(=O)NC2=O)cc1)c1ccccn1.O=C(O)/C=C\C(=O)O (stereo unspecified) [ROSIGLITAZONE MALEATE] , MCV: 65.7

Recorded result, CCN(CC)C(=S)SSC(=S)N(CC)CC , MCV: 62

Recorded result, CC(=O)[C@@]1(O)CC[C@H]2[C@@H]3C=C(Cl)C4=CC(=O)CC[C@]4(C)[C@H]3CC[C@@]21C , MCV: 63.8

Recorded result, O=c1ccc2ccccc2o1 , MCV: 65.4

Recorded result, NS(=O)(=O)c1cc(C(=O)O)c(NCc2ccco2)cc1Cl [FUROSEMIDE] , MCV: 63.9

Recorded result, CN(C/C=C/C#CC(C)(C)C)Cc1cccc2ccccc12 , MCV: 62.3

###

Field: Mono. Provide a value for each of the molecules that follow.
# Species: Rattus norvegicus
# Procedure Details: Open TG-GATES - Regimen: Daily Repeat
# Format: toxicity, organism-based, Sprague-Dawley
# Set-up: regimen Daily Repeat, gender Male, age 6 weeks
# Cond: in vivo, po, 1000 mg/kg, […], tissue Blood, route gavage, dose level High, time 14 day
Output spec: scalar in %, unitless text.

Recorded result, O=C(O)c1ccccc1Nc1ccccc1 , Mono: 3.7

Recorded result, CC(S)C(=O)NCC(=O)O (centres undefined) , Mono: 2.4

Recorded result, CC(=O)[C@@]1(O)CC[C@H]2[C@@H]3C=C(Cl)C4=CC(=O)CC[C@]4(C)[C@H]3CC[C@@]21C , Mono: 2.8

Recorded result, CCCCNC(=O)NS(=O)(=O)c1ccc(C)cc1 [TOLBUTAMIDE] , Mono: 1.8

###

# Species: Rattus norvegicus
# Procedure Details: Open TG-GATES - Regimen: Daily Repeat
# Type: toxicity, organism-based, Sprague-Dawley
# Design: regimen Daily Repeat, gender Male, age 6 weeks
# Cond: in vivo, po, 300 mg/kg, […], tissue Plasma, route gavage, dose level Middle, time 28 day
Recorded Endpoint: K (meq/L)
Output spec: scalar in meq/L, unitless text.

Recorded result, O=C(O)c1ccccc1Nc1ccccc1 , K: 4

Recorded result, CC(=O)[C@@]1(O)CC[C@H]2[C@@H]3C=C(Cl)C4=CC(=O)CC[C@]4(C)[C@H]3CC[C@@]21C , K: 4

Recorded result, CC(S)C(=O)NCC(=O)O (centres undefined) , K: 4.1

Recorded result, CCCCNC(=O)NS(=O)(=O)c1ccc(C)cc1 [TOLBUTAMIDE] , K: 3.9

###

# Species on record: Rattus norvegicus
# Procedure Details: Open TG-GATES - Regimen: Daily Repeat
# Type: toxicity, organism-based, Sprague-Dawley
# Set-up: regimen Daily Repeat, gender Male, age 6 weeks
# Cond: in vivo, po, 300 mg/kg, […], tissue Plasma, route gavage, dose level Middle, time 28 day
Recorded Endpoint: Cl (meq/L)
Output spec: scalar in meq/L, unitless text.

Recorded result, CCCCNC(=O)NS(=O)(=O)c1ccc(C)cc1 [TOLBUTAMIDE] , Cl: 104.2

Recorded result, O=C(O)c1ccccc1Nc1ccccc1 [FENAMIC ACID] , Cl: 103.8

Recorded result, CC(S)C(=O)NCC(=O)O (centres undefined) [TIOPRONIN] , Cl: 106

Recorded result, CC(=O)[C@@]1(O)CC[C@H]2[C@@H]3C=C(Cl)C4=CC(=O)CC[C@]4(C)[C@H]3CC[C@@]21C [CHLORMADINONE] , Cl: 105.6

###

Field: MCHC. Provide a value for each of the compounds that follow.
# Species on record: Rattus norvegicus
# Procedure Details: Open TG-GATES - Regimen: Daily Repeat
# Assay type: toxicity, organism-based, Sprague-Dawley
# Set-up: regimen Daily Repeat, gender Male, age 6 weeks
# Cond: in vivo, po, 1000 mg/kg, […], tissue Blood, route gavage, dose level High, time 7 day
Quick note: unit goes after the number.

Recorded result, CC(S)C(=O)NCC(=O)O (centres undefined) , MCHC: 33.8%

Recorded result, CCCCNC(=O)NS(=O)(=O)c1ccc(C)cc1 [TOLBUTAMIDE] , MCHC: 33.1%

Recorded result, O=C(O)c1ccccc1Nc1ccccc1 , MCHC: 34%

Recorded result, CC(=O)[C@@]1(O)CC[C@H]2[C@@H]3C=C(Cl)C4=CC(=O)CC[C@]4(C)[C@H]3CC[C@@]21C , MCHC: 34%

###

# Species on record: Rattus norvegicus
# Procedure Details: Open TG-GATES - Regimen: Daily Repeat
# Format: toxicity, organism-based, Sprague-Dawley
# Parameters: regimen Daily Repeat, gender Male, age 6 weeks
# Cond: in vivo, po, 100 mg/kg, 72 h, tissue Blood, route gavage, dose level Low, time 3 day
Recorded Endpoint: Ret

Recorded result, CC(=O)[C@@]1(O)CC[C@H]2[C@@H]3C=C(Cl)C4=CC(=O)CC[C@]4(C)[C@H]3CC[C@@]21C , Ret: 5.8%

Recorded result, CC(S)C(=O)NCC(=O)O (centres undefined) , Ret: 6.7%

Recorded result, O=C(O)c1ccccc1Nc1ccccc1 , Ret: 7.2%

Recorded result, CCCCNC(=O)NS(=O)(=O)c1ccc(C)cc1 [TOLBUTAMIDE] , Ret: 5.8%

###

Field: APTT. Provide a value for each of the molecules that follow.
# Organism: Rattus norvegicus
# Procedure Details: Open TG-GATES - Regimen: Daily Repeat
# Format: toxicity, organism-based, Sprague-Dawley
# Set-up: regimen Daily Repeat, gender Male, age 6 weeks
# Cond: in vivo, po, 100 mg/kg, 72 h, tissue Blood, route gavage, dose level Low, time 3 day
Output spec: scalar in s, unitless text.

Recorded result, O=C(O)c1ccccc1Nc1ccccc1 , APTT: 15.6

Recorded result, CCCCNC(=O)NS(=O)(=O)c1ccc(C)cc1 [TOLBUTAMIDE] , APTT: 20.4

Recorded result, CC(S)C(=O)NCC(=O)O (centres undefined) , APTT: 22

Recorded result, CC(=O)[C@@]1(O)CC[C@H]2[C@@H]3C=C(Cl)C4=CC(=O)CC[C@]4(C)[C@H]3CC[C@@]21C , APTT: 26.3

###

Field: CRE. Provide a value for each of the compounds that follow.
# Species: Rattus norvegicus
# Procedure Details: Open TG-GATES - Regimen: Daily Repeat
# Assay type: toxicity, organism-based, Sprague-Dawley
# Parameters: regimen Daily Repeat, gender Male, age 6 weeks
# Cond: in vivo, po, 0 mg/kg, […], tissue Plasma, route gavage, dose level Control, time 7 day
Output spec: scalar in mg/dL, unitless text.

Recorded result, Nc1ccc(Cc2ccc(N)cc2)cc1 , CRE: 0.2

Recorded result, CC(=O)[C@@]1(O)CC[C@H]2[C@@H]3C=C(Cl)C4=CC(=O)CC[C@]4(C)[C@H]3CC[C@@]21C [CHLORMADINONE] , CRE: 0.2

Recorded result, COc1ccc([C@@H]2Sc3ccccc3N(CCN(C)C)C(=O)[C@@H]2OC(C)=O)cc1 [DILTIAZEM] , CRE: 0.2

Recorded result, CCN(CC)C(=S)SSC(=S)N(CC)CC , CRE: 0.2

Recorded result, CCO [ALCOHOL] , CRE: 0.5

Recorded result, CCCCC1C(=O)N(c2ccccc2)N(c2ccccc2)C1=O [PHENYLBUTAZONE] , CRE: 0.5

Recorded result, CCCCNC(=O)NS(=O)(=O)c1ccc(C)cc1 [TOLBUTAMIDE] , CRE: 0.2

Recorded result, NS(=O)(=O)c1cc(C(=O)O)c(NCc2ccco2)cc1Cl [FUROSEMIDE] , CRE: 0.2

Recorded result, CN(CCOc1ccc(CC2SC(=O)NC2=O)cc1)c1ccccn1.O=C(O)/C=C\C(=O)O (stereo not drawn) [ROSIGLITAZONE MALEATE] , CRE: 0.5

Recorded result, O=C(O)c1ccccc1Nc1ccccc1 [FENAMIC ACID] , CRE: 0.2

Recorded result, CC(S)C(=O)NCC(=O)O (stereo not drawn) [TIOPRONIN] , CRE: 0.2

Recorded result, O=c1ccc2ccccc2o1 [COUMARIN] , CRE: 0.6

Recorded result, CN(C/C=C/C#CC(C)(C)C)Cc1cccc2ccccc12 [TERBINAFINE] , CRE: 0.4
